B1: Membrane-associated guanylate kinase, WW and PDZ domain-containing protein 2, residues 601 to 682; numbered along this chain, Q86UL8 (parent)
chain: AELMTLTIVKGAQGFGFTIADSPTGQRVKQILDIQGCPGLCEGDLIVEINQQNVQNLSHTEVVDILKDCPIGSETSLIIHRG

- Variants of: B1
- method summary: abundance fitness (aPCA) (normalised: wild type 0, dead -1); higher = more abundant; growth selection in yeast, the domain comes from the species named
- settings: Homo sapiens
value kind: abundance fitness
Reply briefly: the number, and no unit.

Q: Value lookup for abundance fitness; key = "Q30H"
Result: -0.062

Q: Value lookup for abundance fitness; key = "V47R"
Result: -0.018

Q: Value lookup for abundance fitness; key = "S76E"
Result: -0.044

Recorded values, source the Human Domainome abundance scans (Beltran et al. 2025).
